- Test system: HEK-293T
- Assay explanation: Multiplex assay against HEK293T
- Format: toxicity, cell-based
- Condition details: human, 48 h, 10 µM, compound concentration 10 uM, replicate 1
Recorded measurements of Population Pyknosed Nuclei (%), one per entry
Measurement type: Population Pyknosed Nuclei (%)

compound=CCCC(CCC)C(=O)O result=5%
compound="CN1CCN2c3ncccc3Cc3ccccc3C2C1 (stereo not given)" result=10%
compound=Cc1ccc(-c2ccc(F)cc2COc2ccc(CCC(=O)O)cc2)cc1 result=8%
compound=CC(=O)NCCc1c(Cc2ccccc2)[nH]c2ccccc12 result=7%
compound=N#Cc1c(N)nc(SCc2csc(-c3ccc(Cl)cc3)n2)c(C#N)c1-c1ccc(OCCO)cc1 result=20%
